experimental.parameters: in isopropanol, 318.15 K
value.kind: solubility (mole fraction)

smiles.str	value.kind	observed.result
Nc1ccc([N+](=O)[O-])cc1[N+](=O)[O-]	solubility (mole fraction)	0.00522

====

experimental.parameters: in methanol, 288.15 K

smiles.str	solubility (mole fraction)
Nc1ccc([N+](=O)[O-])cc1[N+](=O)[O-]	0.00192

====

experimental.parameters: in ethyl acetate, 303.15 K
value.kind: solubility (mole fraction)

smiles.str	value.kind	observed.result
Nc1ccc([N+](=O)[O-])cc1[N+](=O)[O-]	solubility (mole fraction)	0.0257

====

experimental.parameters: in toluene, 295.65 K
value.kind: solubility (mole fraction)

smiles.str	observed.result
Nc1ccc([N+](=O)[O-])cc1[N+](=O)[O-]	0.000814

====

experimental.parameters: in n-propanol, 315.65 K

smiles.str	solubility (mole fraction)
Nc1ccc([N+](=O)[O-])cc1[N+](=O)[O-]	0.00452

====

experimental.parameters: in n-propanol, 300.65 K

smiles.str	solubility (mole fraction)
Nc1ccc([N+](=O)[O-])cc1[N+](=O)[O-]	0.00262

====

experimental.parameters: in ethyl acetate, 305.65 K

smiles.str	solubility (mole fraction)
Nc1ccc([N+](=O)[O-])cc1[N+](=O)[O-]	0.0278

====

experimental.parameters: in methanol, 290.65 K
value.kind: solubility (mole fraction)

smiles.str	observed.result
Nc1ccc([N+](=O)[O-])cc1[N+](=O)[O-]	0.00212

====

experimental.parameters: in acetone, 298.15 K
value.kind: solubility (mole fraction)

smiles.str	value.kind	observed.result
Nc1ccc([N+](=O)[O-])cc1[N+](=O)[O-]	solubility (mole fraction)	0.0497

====

experimental.parameters: in methanol, 278.15 K

smiles.str	solubility (mole fraction)
Nc1ccc([N+](=O)[O-])cc1[N+](=O)[O-]	0.00126

====

experimental.parameters: in toluene, 288.15 K
value.kind: solubility (mole fraction)

smiles.str	observed.result
Nc1ccc([N+](=O)[O-])cc1[N+](=O)[O-]	0.000573

====

experimental.parameters: in ethanol, 298.15 K

smiles.str	solubility (mole fraction)
Nc1ccc([N+](=O)[O-])cc1[N+](=O)[O-]	0.00278

====

experimental.parameters: in acetonitrile, 303.15 K
value.kind: solubility (mole fraction)

smiles.str	observed.result
Nc1ccc([N+](=O)[O-])cc1[N+](=O)[O-]	0.0174

====

experimental.parameters: in methanol, 310.65 K
value.kind: solubility (mole fraction)

smiles.str	observed.result
Nc1ccc([N+](=O)[O-])cc1[N+](=O)[O-]	0.00421

====

experimental.parameters: in toluene, 278.15 K

smiles.str	solubility (mole fraction)
Nc1ccc([N+](=O)[O-])cc1[N+](=O)[O-]	0.00033

====

experimental.parameters: in methanol, 313.15 K

smiles.str	solubility (mole fraction)
Nc1ccc([N+](=O)[O-])cc1[N+](=O)[O-]	0.00456

====

experimental.parameters: in ethyl acetate, 290.65 K
value.kind: solubility (mole fraction)

smiles.str	observed.result
Nc1ccc([N+](=O)[O-])cc1[N+](=O)[O-]	0.0177

====

experimental.parameters: in ethyl acetate, 300.65 K

smiles.str	solubility (mole fraction)
Nc1ccc([N+](=O)[O-])cc1[N+](=O)[O-]	0.0238

====

experimental.parameters: in ethanol, 305.65 K
value.kind: solubility (mole fraction)

smiles.str	observed.result
Nc1ccc([N+](=O)[O-])cc1[N+](=O)[O-]	0.00359

====

experimental.parameters: in isopropanol, 295.65 K
value.kind: solubility (mole fraction)

smiles.str	observed.result
Nc1ccc([N+](=O)[O-])cc1[N+](=O)[O-]	0.002

====

experimental.parameters: in n-propanol, 305.65 K

smiles.str	solubility (mole fraction)
Nc1ccc([N+](=O)[O-])cc1[N+](=O)[O-]	0.00314

====

experimental.parameters: in ethanol, 300.65 K
value.kind: solubility (mole fraction)

smiles.str	value.kind	observed.result
Nc1ccc([N+](=O)[O-])cc1[N+](=O)[O-]	solubility (mole fraction)	0.00304

====

experimental.parameters: in acetone, 278.15 K

smiles.str	solubility (mole fraction)
Nc1ccc([N+](=O)[O-])cc1[N+](=O)[O-]	0.0281

====

experimental.parameters: in methanol, 295.65 K
value.kind: solubility (mole fraction)

smiles.str	value.kind	observed.result
Nc1ccc([N+](=O)[O-])cc1[N+](=O)[O-]	solubility (mole fraction)	0.00253

====

experimental.parameters: in isopropanol, 278.15 K

smiles.str	solubility (mole fraction)
Nc1ccc([N+](=O)[O-])cc1[N+](=O)[O-]	0.000854

====

experimental.parameters: in acetone, 300.65 K
value.kind: solubility (mole fraction)

smiles.str	observed.result
Nc1ccc([N+](=O)[O-])cc1[N+](=O)[O-]	0.0531

====

experimental.parameters: in isopropanol, 300.65 K

smiles.str	solubility (mole fraction)
Nc1ccc([N+](=O)[O-])cc1[N+](=O)[O-]	0.00253

====

experimental.parameters: in n-propanol, 298.15 K

smiles.str	solubility (mole fraction)
Nc1ccc([N+](=O)[O-])cc1[N+](=O)[O-]	0.00238

====

experimental.parameters: in ethyl acetate, 295.65 K

smiles.str	solubility (mole fraction)
Nc1ccc([N+](=O)[O-])cc1[N+](=O)[O-]	0.0205
